Cited source: PubChem BioAssay (NCATS)

test: qHTS of pediatric cancer cell lines to identify multiple opportunities for drug repurposing: Primary screen for MG 63 (6-TG R) cells (AID 1347105); conditions: MG 63 (6-TG R) viability, CellTiter-Glo, 48 h; series mostly up to 46 µM; note: nearly all actives have a fitted effect of over 50% in size
Records with an inconclusive call do not appear. Activity calls are given as the source filed them. Calls come from the whole dose curve; as a rule, active = well fitted cell-killing curve with a large enough effect; inconclusive = small, poorly fitted or top-dose-only effect; inactive = no such curve, though single readings can be large or run the other way.
Possible outcomes: active, inactive

| compound | label |
| --- | --- |
| C[C@@H]1CC[C@@]2(OC1)OC1CC3C4CC=C5CC(O)CCC5(C)C4CCC3(C)C1[C@@H]2C (stereo partly specified) | inactive |
| c1coc(CNc2ncnc3nc[nH]c23)c1 | inactive |
| Cc1cc(Nc2ncc3c(n2)N(C)C(=O)N(c2cc(NC(=O)c4cccc(C(F)(F)F)c4)ccc2C)C3)n(C)n1 | active |
| O=C(Nc1nnc(-c2ccco2)o1)c1cc(-c2ccccc2)nc2ccccc12 | active |
| OCCN1C[C@H](O)[C@@H](O)[C@H](O)[C@@H]1CO | inactive |
| Cn1cc(C[C@@H](N)C(=O)O)c2ccccc21 | inactive |
| OC[C@@H](O)[C@@H](O)[C@H](O)[C@@H](O)CO | inactive |
| Cc1cc(-c2nnc3n2CCCCC3)c(C)n1-c1ccccc1 | inactive |
| C[C@@H]1C(=O)O[C@H]2CC34[C@H]5C[C@@H](C(C)(C)C)C36[C@H](OC(=O)[C@@H]6O)O[C@@]4(C(=O)O5)[C@]21O (stereo partly specified) | inactive |
| Nc1ncn([C@@H]2O[C@H](CO)[C@@H](O)[C@@H]2O)c(=O)n1 | inactive |
| CCOC(=O)N1CCN([N+]([O-])=NOc2ccc([N+](=O)[O-])cc2[N+](=O)[O-])CC1 | active |
| O=C(c1ccc(F)cc1)N1CCC[C@H](c2nc(-c3ccc(F)cc3)no2)C1 | inactive |
| NC1=N[C@H]2[C@H](CS[C@H]2CCCCC(=O)O)N1 | inactive |
| CCS(=O)(=O)Nc1ccc2[nH]c(O)c(C(=Nc3ccc(CN4CCCCC4)cc3)c3ccccc3)c2c1 | active |
| c1cncc(CN2CCC(n3ncc4c(N5CCOCC5)nc(-c5ccc6[nH]ccc6c5)nc43)CC2)c1 | active |
| OCCNC1CCCc2c1[nH]c1ccc(-c3ccccc3)cc21 (stereo unspecified) | inactive |
| O=C(O)C(=O)Nc1cccc(C2=NN=N[N]2)c1 | inactive |
| CCCCCCCN(CC)CCCC(O)c1ccc(NS(C)(=O)=O)cc1 (stereo unspecified) | inactive |
| O=C(C[C@@H]1CC=CCCC(=O)O[C@H](c2ccccc2)CNC1=O)NCc1ccc(Cl)cc1 | inactive |
| O=C(O)CCCCCC(=O)NN=C1CCCC1 | inactive |
| O=C(NC1CC1)c1cccc(-c2ccc3c(NC(=O)C4CC4)n[nH]c3c2)c1 | active |

----------
tested on: UISO; assay: qHTS assay to identify novel small-molecules to repurpose for Merkel cell carcinoma treatment (AID 1296009); details: MCC and control cell lines, CellTiter-Glo viability, 72 h; series mostly up to 46 µM; note: nearly all actives have a fitted effect of over 60% in size
Inconclusive results are not listed. Active and inactive are the calls of the source. Calls come from the whole dose curve; as a rule, active = well fitted inhibition curve with a large enough effect; inconclusive = small, poorly fitted or top-dose-only effect; inactive = flat fitted curve, though single readings scatter.
Possible outcomes: YES = active, NO = inactive

| smiles-code | tested-system | label |
| --- | --- | --- |
| CC(=O)[C@]1(O)Cc2c(O)c3c(c(O)c2[C@@H](O[C@H]2C[C@H](N)[C@@H](O)[C@H](C)O2)C1)C(=O)c1ccccc1C3=O | UISO | YES |
| C=C1C[C@@]2(O)O[C@@]3(C[C@H]2C(C)C)[C@H](C)CC[C@H]13 | UISO | NO |
| CC(=O)O[C@H]1C[C@@H]2CC[C@H]3[C@H]4C[C@H]([N+]5(C)CCCCC5)[C@@H](OC(C)=O)[C@@]4(C)CC[C@@H]3[C@@]2(C)C[C@H]1N1CCCCC1 | UISO | NO |
| COc1ccc(CCC(=O)c2c(O)cc(O[C@@H]3O[C@H](CO)[C@@H](O)[C@H](O)[C@@H]3O[C@@H]3O[C@@H](C)[C@H](O)[C@@H](O)[C@@H]3O)cc2O)cc1O | UISO | NO |
| Cc1ccc([N+](=O)[O-])cc1S(=O)(=O)N(C)N=Cc1cnc2ccc(Br)cn12 | UISO | YES |
| N#CC(=C(N)Sc1ccc(N)cc1)c1ccccc1C(F)(F)F | UISO | NO |
| COc1cc(C)c(C=CC(C)=CC=CC(C)=CC(=O)O)c(C)c1C | UISO | NO |
